- tested target: VLA4 (Homo sapiens, UniProt P05556+P13612)
- Construct: endogenous in cells; host or cells: Ramos cells
- Sequence (P13612 34-1032): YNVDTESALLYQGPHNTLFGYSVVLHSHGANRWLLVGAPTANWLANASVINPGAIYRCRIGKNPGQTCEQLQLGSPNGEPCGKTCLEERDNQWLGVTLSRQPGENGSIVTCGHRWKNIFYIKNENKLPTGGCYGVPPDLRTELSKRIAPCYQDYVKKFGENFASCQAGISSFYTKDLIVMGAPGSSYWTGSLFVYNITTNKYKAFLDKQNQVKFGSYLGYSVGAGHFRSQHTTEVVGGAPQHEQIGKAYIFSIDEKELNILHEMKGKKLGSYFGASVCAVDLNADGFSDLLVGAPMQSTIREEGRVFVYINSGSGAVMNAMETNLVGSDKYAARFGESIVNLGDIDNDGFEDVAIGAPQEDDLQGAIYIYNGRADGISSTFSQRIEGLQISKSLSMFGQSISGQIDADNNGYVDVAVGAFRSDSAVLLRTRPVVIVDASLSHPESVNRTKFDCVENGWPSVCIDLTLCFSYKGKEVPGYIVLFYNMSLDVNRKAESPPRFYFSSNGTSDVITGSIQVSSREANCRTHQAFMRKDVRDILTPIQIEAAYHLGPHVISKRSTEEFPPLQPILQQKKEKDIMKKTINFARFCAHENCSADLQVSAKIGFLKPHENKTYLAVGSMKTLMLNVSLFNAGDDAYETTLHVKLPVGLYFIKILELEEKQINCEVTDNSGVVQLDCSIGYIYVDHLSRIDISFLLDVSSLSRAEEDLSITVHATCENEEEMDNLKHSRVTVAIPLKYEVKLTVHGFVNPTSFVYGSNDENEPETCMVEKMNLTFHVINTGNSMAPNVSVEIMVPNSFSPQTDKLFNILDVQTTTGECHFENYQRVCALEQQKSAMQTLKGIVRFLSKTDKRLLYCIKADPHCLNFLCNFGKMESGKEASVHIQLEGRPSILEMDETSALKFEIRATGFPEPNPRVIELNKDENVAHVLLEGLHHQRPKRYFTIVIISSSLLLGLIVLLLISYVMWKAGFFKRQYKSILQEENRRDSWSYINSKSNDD
- Sequence (P05556 21-798): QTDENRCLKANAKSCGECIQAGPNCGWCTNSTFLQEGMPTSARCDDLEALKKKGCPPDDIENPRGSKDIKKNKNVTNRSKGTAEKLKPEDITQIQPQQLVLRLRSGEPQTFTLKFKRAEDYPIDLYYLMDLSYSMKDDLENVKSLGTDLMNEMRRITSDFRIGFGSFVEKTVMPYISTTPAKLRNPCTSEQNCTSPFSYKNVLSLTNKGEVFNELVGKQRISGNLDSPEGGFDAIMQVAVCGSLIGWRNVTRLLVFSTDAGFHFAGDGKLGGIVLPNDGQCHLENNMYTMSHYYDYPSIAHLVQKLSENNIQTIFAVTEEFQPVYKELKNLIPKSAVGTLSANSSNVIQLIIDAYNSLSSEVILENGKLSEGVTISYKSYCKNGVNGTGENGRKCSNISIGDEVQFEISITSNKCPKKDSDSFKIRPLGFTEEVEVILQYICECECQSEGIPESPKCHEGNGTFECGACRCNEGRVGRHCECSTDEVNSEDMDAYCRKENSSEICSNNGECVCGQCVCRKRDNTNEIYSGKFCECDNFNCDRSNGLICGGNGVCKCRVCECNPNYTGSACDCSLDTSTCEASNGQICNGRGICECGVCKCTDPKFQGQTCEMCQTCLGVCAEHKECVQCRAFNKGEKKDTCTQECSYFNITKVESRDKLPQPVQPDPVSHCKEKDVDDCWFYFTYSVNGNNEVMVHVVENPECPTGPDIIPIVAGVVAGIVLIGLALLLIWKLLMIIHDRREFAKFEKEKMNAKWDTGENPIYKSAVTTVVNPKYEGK
- run description: Inhibition of VLA4-dependent adhesion of Ramos cells to BSA-CS1
- Type: cell-based
- measurement context: Ramos cells, BSA-CS1 coated wells, 2 mM MnCl2, 30 minutes at room temperature; read-out: IC50
pIC50: −log10 of the molar value. Numbered stars: 1 amine (or outer) side, 2 acyl side, 3 side chain; on linkers, the order of the positions; unused ones are H or OH. Square brackets hold non-standard residues; d marks the D form. Peptide text beside a SMILES is read from it. * marks the point of attachment. X2 = O=C(Cc1ccc(N[*:1])cc1)[*:2]; NH(2-Me-phenyl) = Cc1ccccc1N*; PhAc = O=C(Cc1ccccc1)*; CO = O=C([*:1])[*:2]; NHPh = c1ccc(N*)cc1; Bn = c1ccc(C*)cc1; NHiBu = CC(C)CN*
I'd appreciate it if you could supply pIC50 values for the items below.

Q) Lookup: pIC50 / VLA4 (Homo sapiens, UniProt P05556+P13612) / CC(C)C[C@H](NC(=O)CCCCCc1ccccc1)C(=O)N[C@@H](CC(=O)O)C(=O)N[C@H](C(=O)O)C(C)C
A) < 5.00

Q) Lookup: pIC50 / VLA4 (Homo sapiens, UniProt P05556+P13612) / CC(C)CC(NC(=O)Cc1ccc(NC(=O)Nc2ccccc2)cc1)C(=O)NC(CC(=O)O)C(=O)NC1CCCCC1 (stereo not shown)
A) 5.00 to 7.30

Q) Lookup: pIC50 / VLA4 (Homo sapiens, UniProt P05556+P13612) / CC(C)CNC(=O)[C@H](CC(=O)O)NC(=O)[C@H](CC(C)C)NC(=O)CNC(=O)c1ccccc1
A) < 5.00

Q) Lookup: pIC50 / VLA4 (Homo sapiens, UniProt P05556+P13612) / CC(C)C[C@H](NC(=O)C1CCc2ccccc2N1)C(=O)N[C@@H](CC(=O)O)C(=O)N[C@H](C(=O)Nc1ccccc1)C(C)C (stereo partly shown)
A) < 5.00

Q) Lookup: pIC50 / VLA4 (Homo sapiens, UniProt P05556+P13612) / CC[C@H](C)[C@H](NC(=O)Cc1ccc(NC(=O)Nc2ccccc2)cc1)C(=O)N[C@@H](CC(=O)O)C(=O)N[C@H](C(=O)N1CCC[C@H]1C(N)=O)C(C)C [Compound 209] ({NHPh-CO}-[X2]IDVP-NH2)
A) 5.00 to 7.30

Q) Lookup: pIC50 / VLA4 (Homo sapiens, UniProt P05556+P13612) / CC(C)C[C@H](NC(=O)Cc1ccc(NC(=O)Nc2ccccc2)cc1)C(=O)N[C@@H](CC(=O)O)C(=O)N[C@H](C(=O)NC(C)C)C(C)C
A) 5.00 to 7.30

Q) Lookup: pIC50 / VLA4 (Homo sapiens, UniProt P05556+P13612) / CC(C)CNC(=O)[C@@H]1CCCN1C(=O)[C@@H](NC(=O)[C@H](CC(=O)O)NC(=O)[C@H](CC(C)C)NC(=O)Cc1ccc(NC(=O)Nc2ccccc2)cc1)C(C)C [Compound 328] ({NHPh-CO}-[X2]LDVP-NHiBu)
A) > 7.30

Q) Lookup: pIC50 / VLA4 (Homo sapiens, UniProt P05556+P13612) / CC(C)C[C@H](NC(=O)c1cc2ccccc2cn1)C(=O)N[C@@H](CC(=O)O)C(=O)O
A) < 5.00

Q) Lookup: pIC50 / VLA4 (Homo sapiens, UniProt P05556+P13612) / CC(C)C[C@@H](C(=O)N[C@@H](CC(=O)O)C(=O)N[C@H](C(=O)O)C(C)C)N(C)C(=O)c1ccccc1 [Compound 113] (HELM PEPTIDE1{[O=C(c1ccccc1)[*:2]].[meL].D.V}$$$$V2.0)
A) < 5.00

Q) Lookup: pIC50 / VLA4 (Homo sapiens, UniProt P05556+P13612) / CC(C)C[C@H](NC(=O)c1cc2ccccc2[nH]1)C(=O)N[C@@H](CC(=O)O)C(=O)N[C@H](C(=O)O)C(C)C
A) < 5.00

Q) Lookup: pIC50 / VLA4 (Homo sapiens, UniProt P05556+P13612) / CC(C)C[C@H](NC(=O)[C@H](CC(=O)O)NC(=O)[C@H](CC(C)C)NC(=O)C1Cc2ccccc2CN1)C(=O)O (stereo partly shown) [Compound 90] (HELM PEPTIDE1{[O=C(C1Cc2ccccc2CN1)[*:2]].L.D.L}$$$$V2.0)
A) < 5.00

Q) Lookup: pIC50 / VLA4 (Homo sapiens, UniProt P05556+P13612) / CC[C@H](C)[C@H](NC(=O)Cc1ccc(NC(=O)Nc2ccccc2C)cc1)C(=O)N[C@@H](CC(=O)O)C(=O)N[C@@H](CC(=O)O)C(N)=O
A) > 7.30

Q) Lookup: pIC50 / VLA4 (Homo sapiens, UniProt P05556+P13612) / CNC(=O)[C@@H](NC(=O)[C@H](CC(=O)O)NC(=O)C1(NC(=O)OC(C)(C)C)CCc2ccccc2C1)C(C)C (stereo partly shown)
A) < 5.00

Q) Lookup: pIC50 / VLA4 (Homo sapiens, UniProt P05556+P13612) / CC(C)C[C@H](NC(=O)Cc1ccc(NC(=O)Nc2ccccc2)cc1)C(=O)N[C@@H](CC(=O)O)C(=O)NC(C)C
A) 5.00 to 7.30

Q) Lookup: pIC50 / VLA4 (Homo sapiens, UniProt P05556+P13612) / CC(C)[C@H](NC(=O)[C@H](CC(=O)O)NC(=O)[C@H](C)NC(=O)C1Cc2ccccc2CN1)C(=O)O (stereo partly shown) [Compound 96] (HELM PEPTIDE1{[O=C(C1Cc2ccccc2CN1)[*:2]].A.D.V}$$$$V2.0)
A) < 5.00

Q) Lookup: pIC50 / VLA4 (Homo sapiens, UniProt P05556+P13612) / CC(C)C[C@H](NC(=O)CC(c1ccccc1)c1ccccc1)C(=O)N[C@@H](CC(=O)O)C(=O)N[C@H](C(=O)O)C(C)C
A) < 5.00

Q) Lookup: pIC50 / VLA4 (Homo sapiens, UniProt P05556+P13612) / CC[C@H](C)[C@H](NC(=O)[C@H](CC(=O)O)NC(=O)[C@@H]1CCCN1C(=O)Cc1ccc(NC(=O)Nc2ccccc2C)cc1)C(N)=O
A) > 7.30

Q) Lookup: pIC50 / VLA4 (Homo sapiens, UniProt P05556+P13612) / CSCC[C@H](NC(=O)[C@H](CC(=O)O)NC(=O)[C@@H]1CCCN1C(=O)Cc1ccc(NC(=O)Nc2ccccc2C)cc1)C(N)=O
A) > 7.30

Q) Lookup: pIC50 / VLA4 (Homo sapiens, UniProt P05556+P13612) / CC(C)C[C@H](NC(=O)C1CCc2ccccc2C1)C(=O)N[C@@H](CC(=O)O)C(=O)N[C@H](C(=O)O)C(C)C (stereo partly shown)
A) < 5.00

Q) Lookup: pIC50 / VLA4 (Homo sapiens, UniProt P05556+P13612) / COC(=O)[C@@H](NC(=O)[C@H](CC(=O)O)NC(=O)[C@H](CC(C)C)NC(=O)Cc1ccccc1)[C@@H](C)OCc1ccccc1 [Compound 192] (PhAc-Leu-Asp-Thr(Bn)-OMe)
A) 5.00 to 7.30

Q) Lookup: pIC50 / VLA4 (Homo sapiens, UniProt P05556+P13612) / COC(=O)[C@@H]1CCCN1C(=O)[C@@H](NC(=O)[C@H](CC(=O)O)NC(=O)[C@H](CC(C)C)NC(=O)CCc1ccccc1)C(C)C
A) < 5.00

Q) Lookup: pIC50 / VLA4 (Homo sapiens, UniProt P05556+P13612) / Cc1ccccc1NC(=O)Nc1ccc(CC(=O)N[C@@H](CC(C)C)C(=O)N[C@@H](CC(=O)O)C(=O)N[C@H](C(=O)N2CCC[C@H]2C(N)=O)C(C)C)cc1 [Compound 148] ({NH(2-Me-phenyl)-CO}-[X2]LDVP-NH2)
A) > 7.30

Provenance of the data: patent US6596687B1
